Item-by-item account of T1/2
- Tested on: wistar hannover rat hepatocytes
- assay.remarks: Hepatocyte stability, wistar hannover rat
- Format: in vitro ADME
- applied.conditions: 2 μM, 0.5 million cells/ml
The reply should contain only the number, in min.

• CNS(=O)(=O)Nc1cccc(Cc2c(CN3CCNCC3)c3cc(F)c(OC(=O)N(C)C)cc3oc2=O)c1F = 162

Tell me the measured T1/2 of `CNS(=O)(=O)Nc1cccc(Cc2c(CN(C)C)c3cc(F)c(OC(=O)N(C)C)cc3oc2=O)c1F` , please.
163

Tell me the measured T1/2 of `CNS(=O)(=O)Nc1nccc(Cc2c(CN(C)C)c3ccc(OC(=O)N(C)C)cc3oc2=O)c1F` , please.
73.4

----------
- Tested on: wistar hannover rat hepatocytes
- assay.remarks: Hepatocyte stability, wistar hannover rat
- Assay type: in vitro ADME
- applied.conditions: 2 μM, 0.5 million cells/ml
Counter-ions that a name gives are not always drawn.
Mark criterion not met for % Remaining At T120 values under 30%, and criterion met for everything at or above.

Field: example entries. Status: answers known.
* CCN(C)Cc1c(Cc2cccc(NS(=O)(=O)NC)c2Cl)c(=O)oc2cc(OC(=O)N(C)C)ccc12 [Compound 245] | criterion not met
* CNS(=O)(=O)Nc1cccc(Cc2c(CN(C)C)c3ccc(OC(=O)N(C)C)cc3oc2=O)c1Cl [Compound 274] | criterion met
* CNS(=O)(=O)Nc1cccc(Cc2c(CN3CCNCC3)c3ccc(OC(=O)N(C)C)cc3oc2=O)c1Cl [Compound 246, hydrochloride] | criterion met
* CNS(=O)(=O)Nc1cccc(Cc2c(CN(C)C)c3ccc(OC(=O)N(C)C)cc3oc2=O)c1F [Compound 9] | criterion met
* CCS(=O)(=O)Nc1cccc(Cc2c(CN(C)C)c3ccc(OC(=O)N(C)C)cc3oc2=O)c1F [Compound 120] | criterion met

Decide: % Remaining At T120 of CNS(=O)(=O)Nc1cccc(Cc2c(CN3CCNCC3)c3cc(F)c(OC(=O)N(C)C)cc3oc2=O)c1F [Compound 134] >= 30%?
criterion met

Decide: % Remaining At T120 of CCN(C)Cc1c(Cc2cccc(NS(=O)(=O)NC)c2F)c(=O)oc2cc(OC(=O)N(C)C)c(F)cc12 [Compound 238] >= 30%?
criterion not met

Decide: % Remaining At T120 of CNS(=O)(=O)Nc1nccc(Cc2c(CN(C)C)c3ccc(OC(=O)N(C)C)cc3oc2=O)c1F [Compound 124] >= 30%?
criterion met

Decide: % Remaining At T120 of CNS(=O)(=O)Nc1cccc(Cc2c(CN(C)C)c3cc(F)c(OC(=O)N(C)C)cc3oc2=O)c1F [Compound 25] >= 30%?
criterion met

Decide: % Remaining At T120 of CNS(=O)(=O)Nc1cccc(Cc2c(CN3CCNCC3)c3cc(Cl)c(OC(=O)N(C)C)cc3oc2=O)c1Cl [Compound 256, hydrochloride] >= 30%?
criterion met

Decide: % Remaining At T120 of CCCS(=O)(=O)Nc1cccc(Cc2c(CN3CCNCC3)c3cc(Cl)c(OC(=O)N(C)C)cc3oc2=O)c1F [Compound 167] >= 30%?
criterion met

Decide: % Remaining At T120 of CCS(=O)(=O)Nc1cccc(Cc2c(CN3CCNCC3)c3cc(Cl)c(OC(=O)N(C)C)cc3oc2=O)c1Cl [Compound 257, hydrochloride] >= 30%?
criterion met

----------
- assay.remarks: Caco-2 bidirectional permeability (absorption & efflux)
- applied.conditions: human
Counter-ions that a name gives are not always drawn.
property: efflux ratio at 2 h, 10 μM
Write no unit; give the number alone.

Tell me the measured efflux ratio at 2 h, 10 μM of CCS(=O)(=O)Nc1cccc(Cc2c(CN3CCNCC3)c3cc(Cl)c(OC(=O)N(C)C)cc3oc2=O)c1Cl [Compound 257, hydrochloride] , please.
5.41

Tell me the measured efflux ratio at 2 h, 10 μM of CCN(C)Cc1c(Cc2cccc(NS(=O)(=O)NC)c2F)c(=O)oc2cc(OC(=O)N(C)C)c(F)cc12 [Compound 238] , please.
0.956

Tell me the measured efflux ratio at 2 h, 10 μM of CCN(C)Cc1c(Cc2cccc(NS(=O)(=O)NC)c2Cl)c(=O)oc2cc(OC(=O)N(C)C)ccc12 [Compound 245] , please.
0.578

Tell me the measured efflux ratio at 2 h, 10 μM of CNS(=O)(=O)Nc1cccc(Cc2c(CN(C)C)c3ccc(OC(=O)N(C)C)cc3oc2=O)c1Cl [Compound 274] , please.
0.533

Tell me the measured efflux ratio at 2 h, 10 μM of CNS(=O)(=O)Nc1cccc(Cc2c(CN3CCNCC3)c3ccc(OC(=O)N(C)C)cc3oc2=O)c1Cl [Compound 246, hydrochloride] , please.
1.68

Tell me the measured efflux ratio at 2 h, 10 μM of CNS(=O)(=O)Nc1cccc(Cc2c(CN3CCNCC3)c3cc(Cl)c(OC(=O)N(C)C)cc3oc2=O)c1Cl [Compound 256, hydrochloride] , please.
3.73

----------
- assay.remarks: Mouse pharmacokinetics (oral cassette dosing), plasma
- Assay type: in vivo
- applied.conditions: female, mouse, BALB/c immunocompetent mice, 5 mg/kg p.o., read-out: Cmax
- Protocol: Female mice (BALC/c) received a single dose (3 mice/treatment) of vehicle (10% 1N HCl:90% [20% […]) and at 0.5, 1, 2, 4, 8, 12 and 24-hour post dose humanely euthanized. Blood was obtained through cardiac puncture into K+EDTA tubes, mixed by inversion and centrifuged to obtain the plasma. Blood will be kept on ice or at approximately 4° C. prior. Centrifugation will take place within 30 minutes of blood collection affording plasma samples. […] All samples will be analysed by means of LC-MS/MS. […]
Counter-ions that a name gives are not always drawn.
Item-by-item account of Cmax
The reply should contain only the number, in ng/mL.

Answered cases to consult:
- CCN(C)Cc1c(Cc2cccc(NS(=O)(=O)NC)c2F)c(=O)oc2cc(OC(=O)N(C)C)c(F)cc12: 857
- CNS(=O)(=O)Nc1cccc(Cc2c(CN3CCNCC3)c3cc(Cl)c(OC(=O)N(C)C)cc3oc2=O)c1Cl [Compound 256, hydrochloride]: 8.3

Tell me the measured Cmax of `CNS(=O)(=O)Nc1cccc(Cc2c(CN(C)C)c3ccc(OC(=O)N(C)C)cc3oc2=O)c1Cl` , please.
796

Tell me the measured Cmax of `CCN(C)Cc1c(Cc2cccc(NS(=O)(=O)NC)c2Cl)c(=O)oc2cc(OC(=O)N(C)C)ccc12` , please.
384

Tell me the measured Cmax of `CNS(=O)(=O)Nc1cccc(Cc2c(CN(C)CCF)c3ccc(OC(=O)N(C)C)cc3oc2=O)c1F` , please.
865

Tell me the measured Cmax of `CNS(=O)(=O)Nc1cccc(Cc2c(CN(C)C)c3ccc(OC(=O)N(C)C)cc3oc2=O)c1Br` , please.
8.3

Tell me the measured Cmax of CCS(=O)(=O)Nc1cccc(Cc2c(CN3CCNCC3)c3cc(Cl)c(OC(=O)N(C)C)cc3oc2=O)c1Cl [Compound 257, hydrochloride] , please.
20.3

----------
- assay.remarks: Plasma stability, mouse plasma (Balb/c; Table 5 head CD-1 Mouse)
- Assay type: in vitro ADME
- applied.conditions: balb/c plasma, 2 μM, anti-coagulant K2-EDTA
Item-by-item account of T1/2

- CNS(=O)(=O)Nc1nccc(Cc2c(CN(C)C)c3ccc(OC(=O)N(C)C)cc3oc2=O)c1F: >2 h
- CCCS(=O)(=O)Nc1cccc(Cc2c(CN3CCNCC3)c3cc(Cl)c(OC(=O)N(C)C)cc3oc2=O)c1F: >2 h

Tell me the measured T1/2 of `CNS(=O)(=O)Nc1cccc(Cc2c(CN(C)C)c3cc(F)c(OC(=O)N(C)C)cc3oc2=O)c1F` , please.
>2 h

----------
- assay.remarks: Plasma stability, beagle dog plasma (K2EDTA)
- Type: in vitro ADME
- applied.conditions: beagle dog plasma, 2 μM, anti-coagulant K2-EDTA
Item-by-item account of T1/2

• CCCS(=O)(=O)Nc1cccc(Cc2c(CN3CCNCC3)c3cc(Cl)c(OC(=O)N(C)C)cc3oc2=O)c1F [Compound 167] = >2 h
• CNS(=O)(=O)Nc1cccc(Cc2c(CN(C)C)c3ccc(OC(=O)N(C)C)cc3oc2=O)c1F [Compound 9] = >2 h

Tell me the measured T1/2 of CCS(=O)(=O)Nc1cccc(Cc2c(CN(C)C)c3ccc(OC(=O)N(C)C)cc3oc2=O)c1F [Compound 120] , please.
>2 h

----------
- assay.remarks: Hepatocyte stability, human
- Assay type: in vitro ADME
- applied.conditions: human, hepatocytes, 0.5 million cells/ml, read-out: CLint (L/hr/kg) (converted)
Where a name gives a salt, the structure may show the parent alone.
property: CLint scaled at 2 μM
Respond with the figure and its unit, in that order.

* CCN(C)Cc1c(Cc2cccc(NS(=O)(=O)NC)c2F)c(=O)oc2cc(OC(=O)N(C)C)c(F)cc12 | 3.51 L/h/kg
* CNS(=O)(=O)Nc1cccc(Cc2c(CN3CCNCC3)c3ccc(OC(=O)N(C)C)cc3oc2=O)c1Cl [Compound 246, hydrochloride] | 0.13 L/h/kg
* CNS(=O)(=O)Nc1cccc(Cc2c(CN3CCNCC3)c3cc(Cl)c(OC(=O)N(C)C)cc3oc2=O)c1Cl [Compound 256, hydrochloride] | 0.242 L/h/kg

Tell me the measured CLint scaled at 2 μM of CCS(=O)(=O)Nc1cccc(Cc2c(CN3CCNCC3)c3cc(Cl)c(OC(=O)N(C)C)cc3oc2=O)c1Cl [Compound 257, hydrochloride] , please.
0.312 L/h/kg
